Data credit: the supplement of paper PMC11061612

Tested on: IST-MEL1 (Melanoma)
Test: Bliss excess, mean over the matrix (fraction); higher = more synergy
Classify by measured Bliss excess: Yes if it is equal to or exceeds 0.02, No if it is smaller.

Worked cases, answers included:
Compound	Subject of test	Group label
CN(C)CCCOc1ccc(-c2ccc3ncc4c(c3c2)n(C2CCOCC2)c(=O)n4C)cn1 [AZD0156] + C=CCn1c(=O)c2cnc(Nc3ccc(N4CCN(C)CC4)cc3)nc2n1-c1cccc(C(C)(C)O)n1 [AZD1775] (first compound max 1 µM, partner max 1 µM)	IST-MEL1 (Melanoma)	No
CN(C)CCCOc1ccc(-c2ccc3ncc4c(c3c2)n(C2CCOCC2)c(=O)n4C)cn1 [AZD0156] + O=C(c1cc(Cc2n[nH]c(=O)c3ccccc23)ccc1F)N1CCN(C(=O)C2CC2)CC1 [Olaparib] (first compound max 3 µM, partner max 3 µM)	IST-MEL1 (Melanoma)	No
CN(CCO)CC[C@H](CSc1ccccc1)Nc1ccc(S(=O)(=O)NC(=O)c2ccc(N3CCC([C@@H](O)c4ccccc4-c4ccc(Cl)cc4)CC3)cc2)cc1S(=O)(=O)C(F)(F)F [AZD4320] + CC(=O)O[C@H]1C(=O)[C@@]2(C)[C@H]([C@H](OC(=O)c3ccccc3)[C@]3(O)C[C@H](OC(=O)[C@H](O)[C@@H](NC(=O)c4ccccc4)c4ccccc4)C(C)=C1C3(C)C)[C@]1(OC(C)=O)CO[C@@H]1C[C@@H]2O [Paclitaxel] (first compound max 1 µM, 7x7, partner max 3 µM)	IST-MEL1 (Melanoma)	Yes
NC1(C(=O)N[C@@H](CCO)c2ccc(Cl)cc2)CCN(c2ncnc3[nH]ccc23)CC1 [Capivasertib] + CCN(CCO)CCCOc1ccc2c(Nc3cc(CC(=O)Nc4cccc(F)c4)[nH]n3)ncnc2c1 [AZD2811] (first compound max 10 µM, 7x7, partner max 1 µM)	IST-MEL1 (Melanoma)	No

Prompt: Please tell me: is the compound Cc1nc(-c2cn3c(n2)-c2ccc(-c4cnn(C(C)(C)C(N)=O)c4)cc2OCC3)n(C(C)C)n1 [Taselisib] + O=C(Nc1ccc2[nH]nc(-c3ccncc3)c2c1)[C@@H]1CCN(CC(=O)N2CCN(c3ccc(-c4ncccn4)cc3)CC2)C1 [SCH772984] (first compound max 10 µM, 7x7, partner max 5 µM) at or over 0.02 in terms of Bliss excess?
Completion: Yes

Prompt: Please tell me: is the compound CN(C)CCCOc1ccc(-c2ccc3ncc4c(c3c2)n(C2CCOCC2)c(=O)n4C)cn1 [AZD0156] + CCN(CCO)CCCOc1ccc2c(Nc3cc(CC(=O)Nc4cccc(F)c4)[nH]n3)ncnc2c1 [AZD2811] (first compound max 1 µM, 7x7, partner max 1 µM) at or over 0.02 in terms of Bliss excess?
Completion: No

====

System: ZR-75-30 (Breast Carcinoma)
Test: Bliss excess, mean over the matrix (fraction); higher = more synergy
Let's look at some compounds and their measured Bliss excess.

Prompt: Query Bliss excess for Cc1c2c(nn1C)CSCc1cc(n(C)n1)CSc1cc(c3ccccc3c1)OCCCc1c(C(=O)O)n(C)c3c-2c(Cl)ccc13 [AZD5991] + CS(=O)(=O)CCNCc1ccc(-c2ccc3ncnc(Nc4ccc(OCc5cccc(F)c5)c(Cl)c4)c3c2)o1 [Lapatinib] (first compound max 1 µM, 7x7, partner max 10 µM)
Completion: 0.063

Prompt: Query Bliss excess for C[C@@H](c1ccc2nccn2c1)n1nnc2ncc(-c3cnn(C)c3)nc21 [Savolitinib] + Cc1c2c(nn1C)CSCc1cc(n(C)n1)CSc1cc(c3ccccc3c1)OCCCc1c(C(=O)O)n(C)c3c-2c(Cl)ccc13 [AZD5991] (first compound max 1 µM, 7x7, partner max 1 µM)
Completion: -0.0388

Prompt: Query Bliss excess for CC1(C)CCC(CN2CCN(c3ccc(C(=O)NS(=O)(=O)c4ccc(NCC5CCOCC5)c([N+](=O)[O-])c4)c(Oc4cnc5[nH]ccc5c4)c3)CC2)=C(c2ccc(Cl)cc2)C1 [Venetoclax] + COc1cc(Nc2ncc3c(n2)-c2ccc(Cl)cc2C(c2c(F)cccc2OC)=NC3)ccc1C(=O)O [Alisertib] (first compound max 1 µM, 7x7, partner max 10 µM)
Completion: -0.0603

====

Tested on: PL4 (Pancreatic Carcinoma)
Assay: Bliss excess, mean over the matrix (fraction); higher = more synergy
Classify by measured Bliss excess: 1.0 if it is equal to or exceeds -0.02, 0.0 if it is smaller.

Compound	Group label
CCN(CCO)CCCOc1ccc2c(Nc3cc(CC(=O)Nc4cccc(F)c4)[nH]n3)ncnc2c1 [AZD2811] + C[C@@H]1COCCN1C2=NC(=NC(=C2)C3(CC3)[S@](=N)(=O)C)C4=C5C=CNC5=NC=C4 [AZD6738] (first compound max 1 µM, 7x7, partner max 10 µM)	1.0
Cn1cnc2c(F)c(Nc3ccc(Br)cc3Cl)c(C(=O)NOCCO)cc21 [Selumetinib] + C=CCn1c(=O)c2cnc(Nc3ccc(N4CCN(C)CC4)cc3)nc2n1-c1cccc(C(C)(C)O)n1 [AZD1775] (first compound max 10 µM, partner max 1 µM)	0.0
Cc1c2c(nn1C)CSCc1cc(n(C)n1)CSc1cc(c3ccccc3c1)OCCCc1c(C(=O)O)n(C)c3c-2c(Cl)ccc13 [AZD5991] + C[C@@H](Nc1cc(F)cc(F)c1)c1cc(C(=O)N(C)C)cc2c(=O)cc(N3CCOCC3)oc12 [AZD8186] (first compound max 1 µM, 7x7, partner max 3 µM)	1.0

Prompt: Please tell me: is the compound CN(CCO)CC[C@H](CSc1ccccc1)Nc1ccc(S(=O)(=O)NC(=O)c2ccc(N3CCC([C@@H](O)c4ccccc4-c4ccc(Cl)cc4)CC3)cc2)cc1S(=O)(=O)C(F)(F)F [AZD4320] + C[C@@H]1COCCN1C2=NC(=NC(=C2)C3(CC3)[S@](=N)(=O)C)C4=C5C=CNC5=NC=C4 [AZD6738] (first compound max 1 µM, 7x7, partner max 10 µM) at or over -0.02 in terms of Bliss excess?
Completion: 0.0

Prompt: Please tell me: is the compound Cc1c2c(nn1C)CSCc1cc(n(C)n1)CSc1cc(c3ccccc3c1)OCCCc1c(C(=O)O)n(C)c3c-2c(Cl)ccc13 [AZD5991] + C=CCn1c(=O)c2cnc(Nc3ccc(N4CCN(C)CC4)cc3)nc2n1-c1cccc(C(C)(C)O)n1 [AZD1775] (first compound max 1 µM, partner max 1 µM) at or over -0.02 in terms of Bliss excess?
Completion: 0.0

Prompt: Please tell me: is the compound CN(C)CCCOc1ccc(-c2ccc3ncc4c(c3c2)n(C2CCOCC2)c(=O)n4C)cn1 [AZD0156] + CCN(CCO)CCCOc1ccc2c(Nc3cc(CC(=O)Nc4cccc(F)c4)[nH]n3)ncnc2c1 [AZD2811] (first compound max 1 µM, 7x7, partner max 1 µM) at or over -0.02 in terms of Bliss excess?
Completion: 1.0

Prompt: Please tell me: is the compound CC(=O)Nc1cccc(-n2c(=O)n(C3CC3)c(=O)c3c(Nc4ccc(I)cc4F)n(C)c(=O)c(C)c32)c1 [Trametinib] + Cc1nc(-c2cn3c(n2)-c2ccc(-c4cnn(C(C)(C)C(N)=O)c4)cc2OCC3)n(C(C)C)n1 [Taselisib] (first compound max 1 µM, 7x7, partner max 10 µM) at or over -0.02 in terms of Bliss excess?
Completion: 1.0

====

Tested on: LS-1034 (Colorectal Carcinoma)
Experiment: combination Emax (second highest fraction inhibited in the dose matrix, 72 h); higher = more inhibition; extreme values may be limits of the assay
Let's look at some molecules and their measured combination Emax.

Molecule	combination Emax
Cn1cnc2c(F)c(Nc3ccc(Br)cc3Cl)c(C(=O)NOCCO)cc21 [Selumetinib] + C=CCn1c(=O)c2cnc(Nc3ccc(N4CCN(C)CC4)cc3)nc2n1-c1cccc(C(C)(C)O)n1 [AZD1775] (first compound max 10 µM, partner max 1 µM)	0.747

Could you now consider this next molecule?
Prompt: Query combination Emax for COc1cc2ncnc(Nc3ccc(F)c(Cl)c3)c2cc1OCCCN1CCOCC1 [Gefitinib] + CC(C)n1c(=O)n(C)c2cnc3cc(F)c(-c4ccc(OCCCN5CCCCC5)nc4)cc3c21 [AZD1390] (first compound max 10 µM, 7x7, partner max 0.3 µM)
Completion: 0.117

====

Tested on: ZR-75-30 (Breast Carcinoma)
Assay: Bliss excess, mean over the matrix (fraction); higher = more synergy
Let's look at some compounds and their measured Bliss excess.
Respond numerically, and do not add a unit to the figure.

Compound	Test value
C[C@@H]1COCCN1c1cc(C2([S@](C)(=N)=O)CC2)nc(-c2ccnc3[nH]ccc23)n1 [AZD6738] + O=C(c1cc(Cc2n[nH]c(=O)c3ccccc23)ccc1F)N1CCN(C(=O)C2CC2)CC1 [Olaparib] (first compound max 10 µM, 7x7, partner max 10 µM)	-0.0408

Prompt: Query Bliss excess for Cc1cc2ncnn2cc1Nc1ncc2c(n1)n(C1CCOCC1)c(=O)n2C [AZD7648] + COc1cc([C@@H]2c3cc4c(cc3[C@@H](O[C@@H]3O[C@@H]5CO[C@@H](C)O[C@H]5[C@H](O)[C@H]3O)[C@H]3COC(=O)[C@H]23)OCO4)cc(OC)c1O [Etoposide] (first compound max 10 µM, 7x7, partner max 10 µM)
Completion: -0.0044
